Test system: GP2D cells
protocolSummary: GP2D proliferation assay (120 h) (colorectal cancer, G12D)
Type: cell-based
Hi there, I'd appreciate the recorded pIC50 for every entry that follows.
// pIC50: -log10(molar conc.)

Field pIC50 (system: GP2D cells) for entry C[C@H](Oc1cc(N2CCNC3(COC3)C2)nc(-c2onc3c2CCC[C@@]32CCCc3sc(N)c(C#N)c32)n1)[C@@H]1CCCN1C [I-4] = 9.00

Value sought: pIC50, system GP2D cells, item C[C@H](Oc1cc(N2CCNC3(CCC3)C2)nc(-c2onc3c2CCC[C@@]32CCCc3sc(N)c(C#N)c32)n1)[C@@H]1CCCN1C [I-3] . Result: 8.70

Tested on GP2D cells: C[C@H](O)Cn1ccc(-c2cc(O[C@@H](C)[C@@H]3CCCN3C)nc(-c3noc4c3CCC[C@@]43CCCc4sc(N)c(C#N)c43)n2)n1 [II-112] . Observed pIC50: 6.61

Hey, GP2D cells data for CO[C@@H]1C[C@@H]([C@H](C)Oc2cc(N3CCNC4(CC4)C3)nc(-c3noc4c3CCC[C@@]43CCCc4sc(N)c(C#N)c43)n2)N(C)C1 [II-187] : pIC50 came out at 9.00

The molecule C[C@H](Oc1cc(-c2ccn(C)n2)nc(-c2noc3c2CCC[C@@]32CCCc3sc(N)c(C#N)c32)n1)[C@@H]1CCCN1C [II-96] , tested on GP2D cells, showed pIC50 of 6.09

The molecule C[C@H](Oc1cc(N2CCN(C)CC2)nc(-c2noc3c2CCC[C@@]32CCCc3sc(N)c(C#N)c32)n1)[C@@H]1CCCN1C [II-55] on GP2D cells: pIC50 was 7.34

The reported pIC50 value, GP2D cells, for C[C@H](Oc1cc(-n2cc3c(n2)CN(C)C3)nc(-c2noc3c2CCC[C@@]32CCCc3sc(N)c(C#N)c32)n1)[C@@H]1CCCN1C [II-174] reads 8.52

Summary: C[C@H](Oc1cc(N2CCN(C)C3(CC3)C2)nc(-c2onc3c2CCC[C@@]32CCCc3sc(N)c(C#N)c32)n1)[C@@H]1CCCN1C [I-41] , GP2D cells, pIC50 = 8.10

Tested on GP2D cells, the item C[C@H](Oc1cc(N2CCN(C)C3(CC3)C2)nc(-c2onc3c2CCC[C@@]32CCCc3sc(N)c(C#N)c32)n1)[C@@H]1C[C@@H](F)CN1C [I-39] showed pIC50 equal to 7.77

====

protocolSummary: Caco-2 assay (permeability PappAB, PappBA, efflux ratio)
Assay type: in vitro ADME
runConditions: human, Caco-2; apical to basolateral; 10 μM test compound, pH 7.4
Classes (Papp A→B at 90 min, 10 μM): interval 1 (below 2 ×10⁻⁶ cm/s), interval 2 (2 ×10⁻⁶ cm/s to below 9 ×10⁻⁶ cm/s), interval 3 (9 ×10⁻⁶ cm/s or more)

Data request: Hi there! Could you help me figure out the category for C[C@H](Oc1cc(-n2cncn2)nc(-c2onc3c2CCC[C@@]32CCCc3sc(N)c(C#N)c32)n1)[C@@H]1CCCN1C [I-18] please?
Data returned: interval 3

Data request: State the class of the molecule shown: C[C@H](Oc1cc(N2CCN[C@@H](C)C2)nc(-c2noc3c2CCC[C@@]32CCCc3sc(N)c(C#N)c32)n1)[C@@H]1CCCN1C [II-162]
Data returned: interval 1

Data request: Sort C[C@H](Oc1cc(N2C[C@H](C)N(C)[C@@H](C)C2)nc(-c2noc3c2CCC[C@@]32CCCc3sc(N)c(C#N)c32)n1)[C@@H]1CCCN1C [II-173] into one of the categories.
Data returned: interval 2

Data request: Hey, which category is C[C@H](Oc1cc(-n2cc(C(=O)N(C)C)nn2)nc(-c2noc3c2CCC[C@@]32CCCc3sc(N)c(C#N)c32)n1)[C@@H]1CCCN1C [II-132] in, do you know?
Data returned: interval 2

Data request: Which class is correct for the following molecule? C[C@H](Oc1cc(N2C[C@H](C)N[C@@H](C)C2)nc(-c2noc3c2CCC[C@@]32CCCc3sc(N)c(C#N)c32)n1)[C@@H]1CCCN1C [II-56]
Data returned: interval 2

Data request: Returns: class label. Input: C[C@H](Oc1cc(N2CCN(CCO)CC2)nc(-c2noc3c2CCC[C@@]32CCCc3sc(N)c(C#N)c32)n1)[C@@H]1CCCN1C [II-8]
Data returned: interval 1

Data request: Please report the category associated with C[C@H](Oc1cc(N2C[C@H](C)N(C)[C@@H](C)C2)nc(-c2onc3c2CCC[C@@]32CCCc3sc(N)c(C#N)c32)n1)[C@@H]1CCCN1C [I-43] , nothing else.
Data returned: interval 2

Data request: Returns: class label. Input: C[C@H](Oc1cc(N2CCNC3(COC3)C2)nc(-c2noc3c2CCC[C@@]32CCCc3sc(N)c(C#N)c32)n1)[C@@H]1C[C@@H](F)CN1C [II-150]
Data returned: interval 2

Data request: // return the class label for C[C@H](Oc1cc(-c2ccn(C)n2)nc(-c2noc3c2CCC[C@@]32CCCc3sc(N)c(C#N)c32)n1)[C@@H]1C[C@H](F)CN1C [II-144]
Data returned: interval 3

Data request: Dear colleague, I would appreciate it if you could identify the bin for C[C@H](Oc1cc(N2CCNC[C@]23CCOC3)nc(-c2onc3c2CCC[C@@]32CCCc3sc(N)c(C#N)c32)n1)[C@@H]1CCCN1C [I-12] and reply at your convenience.
Data returned: interval 1

Data request: For this molecule, which bin applies? C[C@H](Oc1cc(-n2cc(Cn3cncn3)nn2)nc(-c2noc3c2CCC[C@@]32CCCc3sc(N)c(C#N)c32)n1)[C@@H]1CCCN1C [II-124]
Data returned: interval 1

Data request: Where would C[C@H](Oc1cc(-c2cn[nH]c2)nc(-c2noc3c2CCC[C@@]32CCCc3sc(N)c(C#N)c32)n1)[C@@H]1CCCN1C [II-87] land among the classes by reported Papp A→B at 90 min, 10 μM?
Data returned: interval 1

Data request: Please report the category associated with C[C@H](Oc1cc(N2CCN(C)C3(COC3)C2)nc(-c2noc3c2CCC[C@@]32CCCc3sc(N)c(C#N)c32)n1)[C@@H]1C[C@@H](F)CN1C [II-148] , nothing else.
Data returned: interval 3

Data request: Looking at C[C@H](Oc1cc(-n2ccc(C(=O)NC3COC3)n2)nc(-c2noc3c2CCC[C@@]32CCCc3sc(N)c(C#N)c32)n1)[C@@H]1CCCN1C [II-25] , which class would you pick?
Data returned: interval 1

Data request: Please classify: C[C@H](Oc1cc([C@@H]2CCOC2)nc(-c2onc3c2CCC[C@@]32CCCc3sc(N)c(C#N)c32)n1)[C@@H]1CCCN1C [I-22]
Data returned: interval 3

Data request: Kindly state the category for this molecule: C[C@H](Oc1cc([C@@H]2CCN(C)C2)nc(-c2noc3c2CCC[C@@]32CCCc3sc(N)c(C#N)c32)n1)[C@@H]1CCCN1C [II-37]
Data returned: interval 1

Data request: Consider C[C@H](Oc1cc(-n2cc3ccn([C@H]4CCOC4)c(=O)c3n2)nc(-c2noc3c2CCC[C@@]32CCCc3sc(N)c(C#N)c32)n1)[C@@H]1CCCN1C [II-202] . To which Papp A→B at 90 min, 10 μM class does it belong?
Data returned: interval 2

Data request: Into which bin does this molecule go? CO[C@@H]1C[C@@H]([C@H](C)Oc2cc(N3CCNC4(CC4)C3)nc(-c3noc4c3CCC[C@@]43CCCc4sc(N)c(C#N)c43)n2)N(C)C1 [II-187]
Data returned: interval 2

Data request: Which Papp A→B at 90 min, 10 μM category applies to CO[C@@H]1C[C@@H]([C@H](C)Oc2cc(-n3ccnc3)nc(-c3noc4c3CCC[C@@]43CCCc4sc(N)c(C#N)c43)n2)N(C)C1 [II-58] here?
Data returned: interval 3

Data request: Using the reported Papp A→B at 90 min, 10 μM, which band applies to C[C@H](Oc1cc(C2COCCO2)nc(-c2noc3c2CCC[C@@]32CCCc3sc(N)c(C#N)c32)n1)[C@@H]1CCCN1C (stereo partly shown) [II-95] ?
Data returned: interval 3

Data request: Hey, which category is C[C@H](Oc1cc(C2=CCNCC2)nc(-c2noc3c2CCC[C@@]32CCCc3sc(N)c(C#N)c32)n1)[C@@H]1CCCN1C [II-164] in, do you know?
Data returned: interval 1

Data request: Determine which band this molecule sits in: C[C@H](Oc1cc(N2C[C@H](C)N[C@@H](C)C2)nc(-c2onc3c2CCC[C@@]32CCCc3sc(N)c(C#N)c32)n1)[C@@H]1CCCN1C [I-6]
Data returned: interval 2

Data request: Given C[C@H](Oc1cc(-c2ccn(C[C@@H]3CCCO3)n2)nc(-c2noc3c2CCC[C@@]32CCCc3sc(N)c(C#N)c32)n1)[C@@H]1CCCN1C [II-43] , name the class its Papp A→B at 90 min, 10 μM places it in.
Data returned: interval 3

Reference source: patent US20240174690A1
